# assaySystem: NIH 3T3 cells transfected with a human urokinase receptor (Homo sapiens, UniProt Q03405)
# Construct: expressed in transfected cells; host or cells: NIH 3T3 (clone NIH3T3 CH1 (15.10)), mouse fibroblasts
# Sequence (Q03405 23-305 limits assumed): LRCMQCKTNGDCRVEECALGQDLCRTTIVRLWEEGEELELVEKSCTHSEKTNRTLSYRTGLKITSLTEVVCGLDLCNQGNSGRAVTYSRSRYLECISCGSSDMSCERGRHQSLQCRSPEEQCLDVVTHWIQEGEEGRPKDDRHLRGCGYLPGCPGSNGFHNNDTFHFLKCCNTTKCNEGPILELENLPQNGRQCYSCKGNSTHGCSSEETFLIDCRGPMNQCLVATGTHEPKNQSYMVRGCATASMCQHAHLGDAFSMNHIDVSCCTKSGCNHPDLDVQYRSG
# assayName: Cellular assay: uPA binding to NIH 3T3 cells transfected with a human urokinase receptor
# Type: cell-based
# conditionSummary: read-out: IC50 (µg/ml) cells; NIH3T3 CH1 (15.10)-cells
outcomeMeasure: pIC50
Numbers only, as −log10 of the molar value.

[in] If you can, please state the reported pIC50 value of O=S(=O)(O)c1ccc(-c2c3nc(c(-c4ccc(S(=O)(=O)O)cc4)c4ccc([nH]4)c(-c4ccc(S(=O)(=O)O)cc4)c4nc(c(-c5ccc(S(=O)(=O)O)cc5)c5ccc2[nH]5)C=C4)C=C3)cc1 .
[out] 4.67
